Each entry below carries its reported viability.
# assay.explanation: growth inhibitors of H69AR lung tumor, primary screen, human, duplicate replicates (AID 580);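 further: 100% = mean luminescence of untreated wells and 0% = no signal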
# test.parameters: H69AR lung tumor cells viability, ATP luminescence, 72 h; at 10 µM; stronger effect = lower value
API: value field is a number in %; no unit string.

>>> print(df.to_string())
                                   molecule  number
0  O=C1c2oc3ccccc3c(=O)c2C(c2cccnc2)N1Cc1ccco1 (centres undefined)    87.8
1  CCN1CCN(C(=O)c2cn(CCOC)c(=O)c3c2c2ccccc2n3C)CC1    90.6
2  Cc1cccc(C)c1NC(=O)c1cc(S(=O)(=O)N2CCOCC2)ccc1F    89.9

Consider now this further molecule.
Provide measured viability value, entry: "CCOc1ccccc1C(=O)NCCCn1ccnc1"
91.9

###

Each entry below carries its reported viability.
# assay.explanation: reversal of MRP1-mediated doxorubicin resistance, pilot screen, H69AR cells, doxorubicin co-treatment (AID 601)
# test.parameters: H69AR cells + 2 uM doxorubicin, CellTiter-Glo, 72 h; measured here: viability with 2 uM doxorubicin; at 10 µM; stronger effect = lower value
Record the result as a number with its unit.

Some entries whose results are on file:
In [3]: df
Out[3]:
                                   compound  observation_type  result
0  Cc1ccc(N2CC(C(=O)Nc3ccc4c(c3)OCO4)CC2=O)cc1 (configuration not stated)         viability   87.6%
1  Cc1ccc2nc(SC(C)C(=O)N3CCCC3)[nH]c2c1 (configuration not stated)         viability   91.6%
2  C/C(CC(O)(/C=N/O)c1ccccc1)=N\O (configuration not stated)         viability   91.1%
3                     Oc1c(I)cc(I)c2cccnc12         viability   90.9%
4               COc1cc(CN2CCSCC2)cc(OC)c1OC         viability   87.7%

Provide measured viability value, entry: "CCS(=O)(=O)N1CCC(C(=O)NCc2cccs2)CC1"
89.6%

Provide measured viability value, entry: "CCCCCC(=O)N(CN1C(=O)CCC1=O)c1ccccc1"
87.4%

###

# assay.explanation: 384-well plate pilot, post-Golgi transport modulator project, inhibition of yeast transport mutant growth (AID 636)
# test.parameters: absorbance 615 nm, about 18 h, stronger effect = higher value
Each entry below carries its reported inhibition.
API: value field is a number in %; no unit string.

Some entries whose results are on file:
>>> print(df.to_string())
                                   compound  observation_type  number
0  CC(C)(C)NC(=O)COC(=O)c1snc(C(=O)NC2CCCCC2)c1N        inhibition   -0.95
1  CC1(C)C2CCC1(CS(=O)(=O)NCc1ccc(C(=O)O)cc1)C(=O)C2 (stereo not drawn)        inhibition   -0.39
2                    Clc1ccccc1OCCCCn1ccnc1        inhibition    2.34
3       CSc1c(C#N)c(N)c(C#N)c2c1COC(C)(C)C2        inhibition   -11.1
4      CCOC(=O)C1CCN(Cc2ccc(C(=O)OC)cc2)CC1        inhibition   -4.08

Provide measured inhibition value, entry: "CCc1nc(SCC(=O)NCc2ccco2)c2c3c(sc2n1)CCCC3"
-3.12

Provide measured inhibition value, entry: "Cc1cc(C)nc(N(C#N)CC(=O)N2CCC(C(N)=O)CC2)n1"
-7.95

Provide measured inhibition value, entry: "Cc1cccc(OCC(=O)Nc2ccccc2N2CCN(C(=O)C(C)C)CC2)c1C"
-1.95

Provide measured inhibition value, entry: "CS(=O)(=O)NCc1nnc(SCC(=O)NC2CCCCC2)n1-c1ccc(F)cc1"
-6.18

Provide measured inhibition value, entry: "CCS(=O)(=O)N1CCC(C(=O)NCc2cccs2)CC1"
-1.04

###

# assay.explanation: reducers of endogenous Her2 protein level, primary screen, SKBR3 breast tumor cells, AlphaScreen, ATP viability (AID 461);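 further: percent of carrier control wells set as 100% viability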
# test.parameters: 18-24 h, measured here: SKBR3 viability, ATP luminescence, at 10 µM
observation.type: viability

Some entries whose results are on file:
>>> df
                                   molecule  result
0                    CC(C)(C)c1ccc(O)c(N)c1     86%
1  CCOC(=O)C1=C(CSc2nc(C)cc(C)c2C#N)OC(N)=C(C#N)C1c1cccs1 (stereo unspecified)    108%

Provide measured viability value, entry: "Cc1cc(C)nc(NS(=O)(=O)c2ccc(NC(=O)Cn3c(=O)oc4ccccc43)cc2)n1"
89.5%

Provide measured viability value, entry: "COCCn1c(C)c(C(=O)O)sc1=S"
99%

Provide measured viability value, entry: "O=C(C1CCN(c2nnc(-n3cccc3)s2)CC1)N1CCN(Cc2ccc3c(c2)OCO3)CC1"
78.5%

Provide measured viability value, entry: "CCn1cc(C(=O)NCCN(C)CCc2ccccc2)c(=O)c2cc(S(=O)(=O)N(C)C)ccc21"
90%

Provide measured viability value, entry: "CC(C)CCNC(=O)NC(=O)CSc1nnc(-c2ccccc2Br)o1"
95%

Provide measured viability value, entry: O=C(C1CCCO1)N1CCN(C(c2ccccc2)c2ccccc2)CC1 (stereo unspecified)
98.5%

Provide measured viability value, entry: "CCOc1ccc2[nH]cc(C(=O)N3CCN(CC)CC3)c(=O)c2c1"
98%

Provide measured viability value, entry: Cc1c(/C(O)=C2/C(=O)C(=O)N(CCN3CCOCC3)C2c2cccs2)cnn1-c1ccccc1 (stereo unspecified)
88%

Provide measured viability value, entry: "CCOC(=O)N1CCC(NC(=O)c2ccc3nc(N4CCOCC4)sc3c2)CC1"
102%

Provide measured viability value, entry: COc1ccc(-c2nc(CS(=O)CC(=O)N3CCCC3)c(C)o2)cc1 (stereo unspecified)
92.5%

Provide measured viability value, entry: "CSc1nc(N2CCOCC2)c2c(c1C#N)CCCCC2"
112%

Provide measured viability value, entry: "CCOC(=O)COc1ccc(S(=O)(=O)N2CCc3ccccc3C2)cc1"
111%

Provide measured viability value, entry: "Cc1cccc2cc(CN(Cc3nnnn3C3CCCC3)C3CCCCC3)c(=O)[nH]c12"
84.5%

Provide measured viability value, entry: "CCOC(=O)N1CCN(C(=O)c2ccc(N3C(=O)CCC3=O)cc2)CC1"
110%

###

# assay.explanation: HUVEC growth inhibition – cell-based, human, primary screen (AID 575);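 further: 100% = median of untreated cell wells with 0.1% DMSO on each plate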
# test.parameters: HUVEC proliferation, CellTiter-Glo luminescence, 72 h; at 10 µM; stronger effect = lower value
Active and inactive are the calls of the source.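 The calls were made as follows: active = viability at or below 30% in both replicate assays; inconclusive = viability at or below 30% in just one of the two assays; inactive = the rest.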
observation.type: viability

Some entries whose results are on file:
In [3]: df
Out[3]:
                                   compound  observation_type            result
0   COc1cccc(Nc2c(F)c(F)c(F)c(F)c2C(=O)O)c1         viability  92.2% (inactive)
1                     CSc1nnc(-c2ccccc2)n1C         viability   102% (inactive)
2                        CCC(=O)c1ccc(O)cc1         viability    97% (inactive)
3  Cc1ccc(S(=O)(=O)NC(C(=O)OCC(=O)NC2CCS(=O)(=O)C2)C(C)C)cc1 (stereo not given)         viability  98.1% (inactive)

Consider now this further compound.
Provide measured viability value, entry: O=C(NCCc1ccccc1)C1CCCN(S(=O)(=O)c2cccs2)C1 (stereo not given)
112% (inactive)

###

# assay.explanation: 384-well plate pilot, post-Golgi transport modulator project, inhibition of yeast transport mutant growth (AID 636)
# test.parameters: absorbance 615 nm, about 18 h, stronger effect = higher value
observation.type: inhibition (%)
API: value field is a number in %; no unit string.

Some entries whose results are on file:
In [3]: df
Out[3]:
                                 compound  number
0            Cc1cc(NC(=O)c2ccc(Cl)cc2)no1    2.86
1  COc1ccc(OC)c(Nc2nc(-c3sc(N)nc3C)cs2)c1   -6.49

Provide measured inhibition value, entry: CC1Cc2ccccc2N1C(=O)COC(=O)Cn1nnc(-c2ccccc2)n1 (centres undefined)
-5.27

Provide measured inhibition value, entry: "N#CCC(=O)Nc1ncn(Cc2ccccc2Cl)n1"
-4.52

###

# assay.explanation: growth inhibitors of H69AR lung tumor, primary screen, human, duplicate replicates (AID 580);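 further: 100% = mean luminescence of untreated wells and 0% = no signal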
# test.parameters: H69AR lung tumor cells viability, ATP luminescence, 72 h; at 10 µM
The source made the active and inactive calls.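 The calls were made as follows: active = viability at or under a set limit in both replicates, limit being median viability minus 3 SD (cut at about 48% in these data, passing the limit was not always enough); inconclusive = at or under the limit in just one replicate; inactive = at or above the limit in both replicates.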
Form entry, call: pick from Y for active, N for inactive

Study these solved cases before continuing.
>>> print(df.to_string())
                                   compound  answer_label
0             Cc1csc(NC(=O)Nc2cccc(Cl)c2)n1             N
1    Cc1nc(SCC(=O)NCc2ccco2)c2c(C)c(C)sc2n1             N
2  Cc1cc(C)cc(-n2ccnc2SCC(=O)Nc2ccc3c(c2)OCCO3)c1             N
3  Cn1nc(-c2ccc(N3CCCCC3)c(NC(=O)c3ccco3)c2)c2ccccc2c1=O             Y
4              CC(C)c1cc(C(=O)Nc2cccnc2)no1             N

Each compound tested received a call. Report the one for COCCN(C(=O)CNC(=O)c1ccco1)C(C(=O)NC1CCCCC1)c1cccc(OC)c1 (stereo unspecified) .
N
